The measured values listed here are drawn from patent US11964976B1.

tested on: MDA-MB-231 (breast); assay: In vitro cytotoxic activity (MTT) assay, MDA-MB-231; type: cell-based; conditions: Homo sapiens; MDA-MB-231 (breast) cells, exposed for 96 hours; read-out: IC50, concentration eliciting 50% inhibition of cell proliferation
READOUT KIND: IC50 (nM)
// return numeric value only (unit: nM, not printed)

Task: For the compound "Clc1cccc(Nc2nc3ccncc3c3[nH]c4ccncc4c23)c1" , what IC50 is on record?
Output: 2600

---

tested on: H1299 (lung); assay: In vitro cytotoxic activity (MTT) assay, H1299; format: cell-based; conditions: Homo sapiens, NCI-H1299; H1299 (lung) cells, exposed for 96 hours; read-out: IC50, concentration eliciting 50% inhibition of cell proliferation
READOUT KIND: IC50 (µM)
The response must be a number in µM with no trailing unit.

Task: Find the recorded IC50 belonging to Clc1cccc(Nc2nc3ccncc3c3[nH]c4ccncc4c23)c1 [Compound 1] and report it.
Output: 1.2
